Test system: E. coli strain W3110
Assay: Synergy assays: Biolog chemical sensitivity panels with Group IB metal, coefficient of drug interaction (CDI) from relative growth
Assay type: cell-based
Settings: Copper (mM) section, 1st of 3 copper concentrations (value not shown); 1st of four biocide concentrations
endpoint: CDI (coefficient of drug interaction), copper mixed with biocide
Simply state the number, no unit and no words.

Some solved cases for reference:
CN[C@H]1C[C@@H](N)[C@H](O)[C@@H](O[C@@H]2O[C@H](CO)[C@H](O)[C@@H]3OC4(O[C@H]23)O[C@H]([C@@H](N)CO)[C@H](O)[C@H](O)[C@H]4O)[C@@H]1O (stereo partly shown) | 1.19
CN(C)C(=O)/N=N/C(=O)N(C)C [diamide] | 1.02

Query block: Return CDI (coefficient of drug interaction), copper mixed with biocide for the following compound: N.N.N.N.N.N.[Cl-].[Cl-].[Cl-].[Co+3] [hexammine cobalt (III) chloride]
Result block: 1.06

Query block: Return CDI (coefficient of drug interaction), copper mixed with biocide for the following compound: `CN[C@@H]1[C@@H](O)[C@@H](O[C@@H]2[C@@H](O)[C@H](O[C@H]3O[C@H]([C@@H](C)O)[C@@H](O)[C@H](O)[C@H]3N)[C@@H](N)C[C@H]2N)OC[C@]1(C)O`
Result block: 0.97

###

Test system: E. coli strain W3110
Experiment: Synergy assays: Biolog chemical sensitivity panels with Group IB metal, coefficient of drug interaction (CDI) from relative growth
Format: cell-based
Conditions: Gold (μM), first of 3 gold concentrations; biocide concentration 4 of 4
endpoint: CDI (coefficient of drug interaction), gold + biocide

Some solved cases for reference:
CSCCC(N)C(=O)NO (racemic) [D,L-methionine hydroxamate] | Tox
CCCCCCCC(=O)[O-].[Na+] [sodium caprylate] | Tox
c1ccc(-c2nn(-c3ccccc3)[n+](-c3cccc4ccccc34)n2)cc1 [Tetrazolium violet] | Tox
NC(CCC(=O)NO)C(=O)O [L-glutamic-γ-hydroxamate] | 1.08

Now for the compound whose CDI (coefficient of drug interaction), gold + biocide we want.
Query block: State recorded CDI (coefficient of drug interaction), gold + biocide with E. coli strain W3110, entry O=C(O)c1cc(O)c(O)c(O)c1 [gallic acid] , no comment.
Result block: Tox

###

Test system: E. coli strain W3110
Assay: Synergy assays: Biolog chemical sensitivity panels with Group IB metal, coefficient of drug interaction (CDI) from relative growth
Type: cell-based
Details: Gold section of Table 5; third of three gold concentrations (μM, value not given); biocide concentration 4 of 4
Counter-ions that a name gives are not always drawn.
endpoint: CDI (coefficient of drug interaction)

C[n+]1cc2c3c(ccc2c2ccc4cc5c(cc4c21)OCO5)OCO3 [sanguinarine] | Tox
N=C(N)N [guanidine hydrochloride] | Tox
CN[C@@H]1[C@@H](O)[C@@H](O[C@@H]2[C@@H](O)[C@H](O[C@H]3O[C@H]([C@@H](C)O)[C@@H](O)[C@H](O)[C@H]3N)[C@@H](N)C[C@H]2N)OC[C@]1(C)O [geneticin (G418)] | 1.11
OC(CCN1CCCCC1)(c1ccccc1)c1ccccc1 [pridinol] | Tox

###

System: E. coli strain W3110
Experiment: Synergy assays: Biolog chemical sensitivity panels with Group IB metal, coefficient of drug interaction (CDI) from relative growth
Assay type: cell-based
Settings: Gold (μM), third of 3 gold concentrations; biocide concentration 4 of 4
endpoint: CDI (coefficient of drug interaction), gold + biocide

c1ccc(-c2nn(-c3ccccc3)[n+](-c3cccc4ccccc34)n2)cc1 | Tox
Cc1onc(-c2ccccc2Cl)c1C(=O)N[C@@H]1C(=O)N2[C@@H]1SC(C)(C)[C@@H]2C(=O)O | Tox
NC(CCC(=O)NO)C(=O)O [L-glutamic-γ-hydroxamate] | 1.01
Cc1onc(-c2ccccc2)c1C(=O)N[C@@H]1C(=O)N2[C@@H]1SC(C)(C)[C@@H]2C(=O)O | Tox

###

Tested on: E. coli strain W3110
Test: Synergy assays: Biolog chemical sensitivity panels with Group IB metal, coefficient of drug interaction (CDI) from relative growth
Assay type: cell-based
Conditions: Copper (mM), 1st of 3 copper concentrations (head line not shown); biocide concentration 1 of 4; E. coli
Here the recorded CDI (coefficient of drug interaction) is given for each entry.
Simply state the number, no unit and no words.

Query block: Return CDI (coefficient of drug interaction) for the following compound: `CN(CC[C@H](N)CC(=O)N[C@H]1C=C[C@H](n2ccc(N)nc2=O)O[C@@H]1C(=O)O)C(=N)N`
Result block: 1.05

###

Test system: E. coli strain W3110
Assay: Synergy assays: Biolog chemical sensitivity panels with Group IB metal, coefficient of drug interaction (CDI) from relative growth
Format: cell-based
Details: Copper (mM) section, 3rd of 3 copper concentrations (value not shown); 4th of four biocide concentrations
endpoint: CDI (coefficient of drug interaction), copper mixed with biocide

CCCCCCCCCCCC[N+](C)(C)C.[Br-] | Tox
CCCCCCCCCCCC[N+](C)(C)CCCS(=O)(=O)O | 0.07
CCn1cc(C(=O)O)c(=O)c2cnc(N3CCNCC3)nc21 | Tox
O=[N+]([O-])c1ccc(Cl)c([N+](=O)[O-])c1 | Tox
N.N.N.N.N.N.[Cl-].[Cl-].[Cl-].[Co+3] [hexammine cobalt (III) chloride] | 0.87
CN[C@@H]1[C@@H](O)[C@@H](O[C@@H]2[C@@H](O)[C@H](O[C@H]3O[C@H]([C@@H](C)O)[C@@H](O)[C@H](O)[C@H]3N)[C@@H](N)C[C@H]2N)OC[C@]1(C)O | 0.44
CCn1cc(C(=O)O)c(=O)c2ccc(C)nc21 | Tox
O=c1cc(O)c2ccccc2o1 [4-Hydroxy-coumarin] | Tox

Now for the molecule whose CDI (coefficient of drug interaction), copper mixed with biocide we want.
Query block: State recorded CDI (coefficient of drug interaction), copper mixed with biocide with E. coli strain W3110, entry `CCCCCCCC[N+](C)(CCCCCCCC)CCCCCCCC.[Br-]` , no comment.
Result block: Tox

###

Test system: E. coli strain W3110
Experiment: Synergy assays: Biolog chemical sensitivity panels with Group IB metal, coefficient of drug interaction (CDI) from relative growth
Format: cell-based
Conditions: Gold section of Table 5; third of three gold concentrations (μM, value not given); biocide concentration 2 of 4
Here the recorded CDI (coefficient of drug interaction) is given for each entry.
Simply state the number, no unit and no words.

Query block: Return CDI (coefficient of drug interaction) for the following compound: CN[C@@H]1[C@@H](O)[C@@H](O[C@@H]2[C@@H](O)[C@H](O[C@H]3O[C@H]([C@@H](C)O)[C@@H](O)[C@H](O)[C@H]3N)[C@@H](N)C[C@H]2N)OC[C@]1(C)O [geneticin (G418)]
Result block: 1.04

Query block: Return CDI (coefficient of drug interaction) for the following compound: C[n+]1ccc(-c2cc[n+](C)cc2)cc1 [methyl viologen]
Result block: 0.98

Query block: Return CDI (coefficient of drug interaction) for the following compound: CCCCCCCCCCCC[N+](C)(C)CCCS(=O)(=O)O [lauryl sulfobetaine]
Result block: 1.04

###

System: E. coli strain W3110
Assay: Synergy assays: Biolog chemical sensitivity panels with Group IB metal, coefficient of drug interaction (CDI) from relative growth
Assay type: cell-based
Conditions: Gold section of Table 5; first of three gold concentrations (μM, value not given); biocide concentration 3 of 4
Here the recorded CDI (coefficient of drug interaction) is given for each entry.
Simply state the number, no unit and no words.

Some solved cases for reference:
CN[C@@H]1[C@@H](O)[C@@H](O[C@@H]2[C@@H](O)[C@H](O[C@H]3O[C@H]([C@@H](C)O)[C@@H](O)[C@H](O)[C@H]3N)[C@@H](N)C[C@H]2N)OC[C@]1(C)O [geneticin (G418)] | 1.01
O=S(=O)(F)Cc1ccccc1 [PMSF] | 0.93
CCCCCCCCCCCC[N+](C)(C)CCCS(=O)(=O)O [lauryl sulfobetaine] | 0.86
CCCCCCCC[N+](C)(CCCCCCCC)CCCCCCCC.[Br-] [Methyltrioctyl NH4+ Br−] | 1.00
C[n+]1ccc(-c2cc[n+](C)cc2)cc1 [methyl viologen] | 0.82
CN(CC[C@H](N)CC(=O)N[C@H]1C=C[C@H](n2ccc(N)nc2=O)O[C@@H]1C(=O)O)C(=N)N [blasticidin S] | 0.97

Now for the compound whose CDI (coefficient of drug interaction) we want.
Query block: Return CDI (coefficient of drug interaction) for the following compound: CCCCCCCCCCCC[N+](C)(C)C.[Br-] [Dodecyltrimethyl NH4^+ Br^−]
Result block: 0.95

###

System: E. coli strain W3110
Test: Synergy assays: Biolog chemical sensitivity panels with Group IB metal, coefficient of drug interaction (CDI) from relative growth
Assay type: cell-based
Conditions: Gold (μM), third of 3 gold concentrations; biocide concentration 3 of 4
endpoint: CDI (coefficient of drug interaction), gold + biocide
Simply state the number, no unit and no words.

Query block: State recorded CDI (coefficient of drug interaction), gold + biocide with E. coli strain W3110, entry CSCCC(N)C(=O)NO (racemic) [D,L-methionine hydroxamate] , no comment.
Result block: 0.93

Query block: State recorded CDI (coefficient of drug interaction), gold + biocide with E. coli strain W3110, entry `N.N.N.N.N.N.N.N.N.N.N.N.N.N.[Cl-].[Cl-].[Cl-].[Cl-].[Cl-].[Cl-].[O-2].[O-2].[Ru+3].[Ru+3].[Ru+4]` , no comment.
Result block: 1.13

Query block: State recorded CDI (coefficient of drug interaction), gold + biocide with E. coli strain W3110, entry NCC(=O)NO [glycine hydroxamate] , no comment.
Result block: 1.39

Query block: State recorded CDI (coefficient of drug interaction), gold + biocide with E. coli strain W3110, entry `CC1(C)S[C@@H]2[C@H](NC(=O)[C@H](NC(=O)N3CCNC3=O)c3ccccc3)C(=O)N2[C@H]1C(=O)O` , no comment.
Result block: 0.93

Query block: State recorded CDI (coefficient of drug interaction), gold + biocide with E. coli strain W3110, entry `O=[N+]([O-])c1ccc(O)c([N+](=O)[O-])c1` , no comment.
Result block: 0.61
